- ASSAYED_TARGET: GST-tagged MDM2 (Homo sapiens)
- Construct: purchased Cisbio Co. Ltd
- Sequence (Q00987 whole entry): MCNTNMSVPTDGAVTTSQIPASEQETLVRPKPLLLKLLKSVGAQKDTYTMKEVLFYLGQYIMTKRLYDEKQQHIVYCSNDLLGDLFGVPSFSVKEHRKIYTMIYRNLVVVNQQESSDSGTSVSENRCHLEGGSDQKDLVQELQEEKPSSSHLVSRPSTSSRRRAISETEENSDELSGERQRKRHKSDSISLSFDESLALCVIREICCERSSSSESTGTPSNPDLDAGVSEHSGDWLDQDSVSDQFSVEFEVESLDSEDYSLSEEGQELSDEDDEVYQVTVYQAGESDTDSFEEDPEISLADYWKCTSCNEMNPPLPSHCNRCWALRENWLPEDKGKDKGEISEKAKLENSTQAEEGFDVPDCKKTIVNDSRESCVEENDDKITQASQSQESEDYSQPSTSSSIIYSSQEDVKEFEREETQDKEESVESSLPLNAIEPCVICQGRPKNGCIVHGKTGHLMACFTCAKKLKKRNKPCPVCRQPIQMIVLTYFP
- EXPERIMENT_SUMMARY: HTRF enzyme inhibition assay, MDM2
- Assay type: biochemical
- STATED_CONDITIONS: compound at 1 μM
Quick rule: inhibition at 1 µM of at least 60% means 1 (yes), below that means 0 (no).

Known results for molecules:
Cc1ccc2c(c1)[C@@]1(C(=O)N2)[C@@H](C(=O)c2ccccc2)[C@H](c2ccc(NC(=O)CCCCCCC(=O)NO)cc2)[C@H]2CSCN21 ... 0 (no)
O=C(CCCCCCCCC(=O)Nc1ccc([C@@H]2[C@H]3CSCN3[C@]3(C(=O)Nc4ccccc43)[C@H]2C(=O)c2ccccc2)cc1)NO ... 0 (no)
O=C(CCC(=O)Nc1ccc([C@@H]2[C@H]3CSCN3[C@]3(C(=O)Nc4ccccc43)[C@H]2C(=O)c2ccccc2)cc1)NO ... 0 (no)
O=C(CCCCCCC(=O)Nc1ccc([C@@H]2[C@@H](c3ccccc3)N[C@]3(C(=O)Nc4cc(Cl)ccc43)[C@H]2C(=O)c2ccccc2)cc1)NO [15a] ... 1 (yes)
Nc1ccccc1NC(=O)CCCCCCCCC(=O)Nc1ccc([C@@H]2[C@H]3CSCN3[C@]3(C(=O)Nc4cc(Cl)ccc43)[C@H]2C(=O)c2ccccc2)cc1 ... 0 (no)
O=C(CCCCCCC(=O)Nc1ccc([C@@H]2[C@H]3CSCN3[C@]3(C(=O)Nc4cc(Cl)ccc43)[C@H]2C(=O)c2ccccc2)cc1)NO ... 1 (yes)
O=C(CCCCC(=O)Nc1ccc(C(=O)Nc2ccc([C@@H]3[C@H]4CSCN4[C@]4(C(=O)Nc5cc(Cl)ccc54)[C@H]3C(=O)c3ccccc3)cc2)cc1)NO ... 0 (no)
O=C(CCCCC(=O)N1CCC(C(=O)Nc2ccc([C@@H]3[C@H]4CSCN4[C@]4(C(=O)Nc5cc(Cl)ccc54)[C@H]3C(=O)c3ccccc3)cc2)CC1)NO [11a] ... 1 (yes)
Nc1ccccc1NC(=O)CCCCCCC(=O)Nc1ccc([C@@H]2[C@H]3CSCN3[C@]3(C(=O)Nc4cc(Cl)ccc43)[C@H]2C(=O)c2ccccc2)cc1 ... 0 (no)
Nc1ccccc1NC(=O)CCCCCCC(=O)Nc1ccc([C@@H]2[C@H]3CSCN3[C@]3(C(=O)Nc4ccccc43)[C@H]2C(=O)c2ccccc2)cc1 ... 0 (no)

--- query ---
Prompt: # bool: inhibition at 1 µM of O=C(CCCCCCC(=O)Nc1ccc([C@@H]2[C@H]3CSCN3[C@]3(C(=O)Nc4ccc(Cl)cc43)[C@H]2C(=O)c2ccccc2)cc1)NO >= 60%
Response: 0 (no)

###

- ASSAYED_TARGET: HDAC1 (Homo sapiens, UniProt Q13547)
- Sequence (Q13547 whole entry): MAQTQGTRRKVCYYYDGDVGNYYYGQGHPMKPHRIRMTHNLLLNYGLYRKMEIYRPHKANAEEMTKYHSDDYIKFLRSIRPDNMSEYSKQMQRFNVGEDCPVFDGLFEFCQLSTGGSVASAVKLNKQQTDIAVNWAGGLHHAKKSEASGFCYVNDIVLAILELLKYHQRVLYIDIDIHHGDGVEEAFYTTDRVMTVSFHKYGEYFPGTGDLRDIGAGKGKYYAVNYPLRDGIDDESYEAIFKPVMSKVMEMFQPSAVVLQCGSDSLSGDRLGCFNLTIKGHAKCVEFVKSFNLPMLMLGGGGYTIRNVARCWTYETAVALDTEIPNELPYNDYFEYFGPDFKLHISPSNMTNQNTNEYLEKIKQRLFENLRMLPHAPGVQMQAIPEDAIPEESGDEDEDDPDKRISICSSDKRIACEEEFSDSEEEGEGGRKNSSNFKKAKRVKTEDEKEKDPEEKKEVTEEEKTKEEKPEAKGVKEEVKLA
- EXPERIMENT_SUMMARY: HTRF enzyme inhibition assay, HDAC1
- STATED_CONDITIONS: read-out: % enzyme inhibition HDAC
Listed here are molecules together with their documented inhibition at 1 µM.

Worked cases, answers included:
O=C(CCCCC(=O)Nc1ccc([C@@H]2[C@H]3CSCN3[C@]3(C(=O)Nc4cc(Cl)ccc43)[C@H]2C(=O)c2ccccc2)cc1)NO ... 55%
Nc1ccccc1NC(=O)CCCCCCC(=O)Nc1ccc([C@@H]2[C@H]3CSCN3[C@]3(C(=O)Nc4ccccc43)[C@H]2C(=O)c2ccccc2)cc1 ... 45%
O=C(CCC(=O)Nc1ccc([C@@H]2[C@H]3CSCN3[C@]3(C(=O)Nc4ccccc43)[C@H]2C(=O)c2ccccc2)cc1)NO ... 54%
O=C(CCCCCCC(=O)Nc1ccc([C@@H]2[C@H]3CSCN3[C@]3(C(=O)Nc4ccc(Cl)cc43)[C@H]2C(=O)c2ccccc2)cc1)NO ... 67%
O=C(CCCCCCCCC(=O)Nc1ccc([C@@H]2[C@H]3CSCN3[C@]3(C(=O)Nc4ccccc43)[C@H]2C(=O)c2ccccc2)cc1)NO ... 71%
O=C(CCCCCCC(=O)Nc1ccc([C@@H]2[C@H]3CSCN3[C@]3(C(=O)Nc4ccc(Br)cc43)[C@H]2C(=O)c2ccccc2)cc1)NO ... 72%
COc1ccc2c(c1)[C@@]1(C(=O)N2)[C@@H](C(=O)c2ccccc2)[C@H](c2ccc(NC(=O)CCCCCCC(=O)NO)cc2)[C@H]2CSCN21 ... 70%

Please examine the following record next.
The recorded inhibition at 1 µM for entry COc1cccc(C(=O)[C@H]2[C@H](c3ccc(NC(=O)CCCCCCC(=O)NO)cc3)[C@H]3CSCN3[C@]23C(=O)Nc2ccccc23)c1 equals 62%

###

OBSERVABLE: melting point

See these solved cases before continuing.
Cc1cccc2c1NC(=O)[C@@]21[C@@H](C(=O)c2ccccc2)[C@H](c2ccc(NC(=O)CCCCCCC(=O)NO)cc2)[C@H]2CSCN21 ... 142.7 to 143.9 °C
O=C(CCCCCCC(=O)Nc1ccc([C@@H]2[C@H]3CSCN3[C@]3(C(=O)Nc4cc(Cl)ccc43)[C@H]2C(=O)c2ccccc2)cc1)NO ... 150.2 to 151.2 °C
O=C(COCC(=O)Nc1ccc([C@@H]2[C@H]3CSCN3[C@]3(C(=O)Nc4cc(Cl)ccc43)[C@H]2C(=O)c2ccccc2)cc1)NO ... 167.1 to 168.5 °C

Data point: O=C(CCCCCCC(=O)Nc1ccc([C@@H]2[C@H]3CSCN3[C@]3(C(=O)Nc4ccccc43)[C@H]2C(=O)c2ccccc2)cc1)NO ; melting point = 144.7 to 146.1 °C

###

- Test system: A431 cells
- EXPERIMENT_SUMMARY: MTT antiproliferative assay, A431
- STATED_CONDITIONS: Homo sapiens, A-431, read-out: IC50 A431
Some compounds, each annotated with its measured IC50.
Note: unit µM is implicit; provide only the numeric part.

COc1ccc(C2=N[C@@H](c3ccc(Cl)cc3)[C@@H](c3ccc(Cl)cc3)N2C(=O)N2CCNC(=O)C2)c(OC(C)C)c1 [Nutlin-3, reference compound] ... 9.72
O=C(COCC(=O)Nc1ccc([C@@H]2[C@H]3CSCN3[C@]3(C(=O)Nc4cc(Cl)ccc43)[C@H]2C(=O)c2ccccc2)cc1)NO ... 3.64

Now examine the next entry.
The value of IC50 measured for the compound O=C(CCCCC(=O)N1CCC(C(=O)Nc2ccc([C@@H]3[C@H]4CSCN4[C@]4(C(=O)Nc5cc(Cl)ccc54)[C@H]3C(=O)c3ccccc3)cc2)CC1)NO [11a] turned out to be 4.62

###

- ASSAYED_TARGET: UniProt:Q13547
- EXPERIMENT_SUMMARY: HTRF enzyme inhibition assay, HDAC1
- STATED_CONDITIONS: read-out: % enzyme inhibition HDAC
OBSERVABLE: inhibition at 1 µM (%)
Value expressed in %; do not type the unit.

O=C(CCCCCCC(=O)Nc1ccc([C@@H]2[C@H]3CCCN3[C@]3(C(=O)Nc4cc(Cl)ccc43)[C@H]2C(=O)c2ccccc2)cc1)NO ... 61
O=C(CCCCC(=O)Nc1ccc([C@@H]2[C@H]3CSCN3[C@]3(C(=O)Nc4ccccc43)[C@H]2C(=O)c2ccccc2)cc1)NO ... 60

Measured inhibition at 1 µM of O=C(CCCCCCC(=O)Nc1ccc([C@@H]2[C@@H](c3ccccc3)N[C@]3(C(=O)Nc4cc(Cl)ccc43)[C@H]2C(=O)c2ccccc2)cc1)NO [15a] : 61

###

OBSERVABLE: melting point

// known answers, use as guide
O=C(CCCCCCC(=O)Nc1ccc([C@@H]2[C@H]3CSCN3[C@]3(C(=O)Nc4cc(Br)ccc43)[C@H]2C(=O)c2ccccc2)cc1)NO ... 149.8 to 152.1 °C
O=C(CCCCC(=O)Nc1ccc([C@@H]2[C@H]3CSCN3[C@]3(C(=O)Nc4ccccc43)[C@H]2C(=O)c2ccccc2)cc1)NO ... 140.3 to 141.7 °C
CN1C[C@@H](c2ccc(NC(=O)CCCCCCC(=O)NO)cc2)[C@H](C(=O)c2ccccc2)[C@@]12C(=O)Nc1cc(Cl)ccc12 [13a] ... 126.7 to 127.9 °C
O=C(CCCCC(=O)Nc1ccc([C@@H]2[C@H]3CSCN3[C@]3(C(=O)Nc4cc(Cl)ccc43)[C@H]2C(=O)c2ccccc2)cc1)NO ... 160.6 to 161.9 °C
COc1ccc2c(c1)[C@@]1(C(=O)N2)[C@@H](C(=O)c2ccccc2)[C@H](c2ccc(NC(=O)CCCCCCC(=O)NO)cc2)[C@H]2CSCN21 ... 134.9 to 136.2 °C
O=C(CCCCCCC(=O)Nc1ccc([C@@H]2[C@H]3CSCN3[C@]3(C(=O)Nc4ccc(Br)cc43)[C@H]2C(=O)c2ccccc2)cc1)NO ... 146.8 to 148 °C
O=C(CCCCCCC(=O)Nc1ccc([C@@H]2[C@H]3CSCN3[C@]3(C(=O)Nc4ccccc43)[C@H]2C(=O)c2cccc(Br)c2)cc1)NO ... 120.2 to 121.5 °C
O=C(CCCCCCC(=O)Nc1ccc([C@@H]2[C@H]3CSCN3[C@]3(C(=O)Nc4c(Br)cccc43)[C@H]2C(=O)c2ccccc2)cc1)NO ... 137.5 to 138.9 °C
O=C(CCCCC(=O)Nc1ccc(C(=O)Nc2ccc([C@@H]3[C@H]4CSCN4[C@]4(C(=O)Nc5cc(Cl)ccc54)[C@H]3C(=O)c3ccccc3)cc2)cc1)NO ... 175.5 to 176.6 °C
COc1cccc(C(=O)[C@H]2[C@H](c3ccc(NC(=O)CCCCCCC(=O)NO)cc3)[C@H]3CSCN3[C@]23C(=O)Nc2ccccc23)c1 ... 121.6 to 122.8 °C

Form field melting point, entry Nc1ccccc1NC(=O)CCCCCCCCC(=O)Nc1ccc([C@@H]2[C@H]3CSCN3[C@]3(C(=O)Nc4cc(Cl)ccc43)[C@H]2C(=O)c2ccccc2)cc1 : 132.4 to 133.9 °C

melting point measured on O=C(CCCCCCC(=O)Nc1ccc([C@@H]2[C@H]3CSCN3[C@]3(C(=O)Nc4ccc(F)cc43)[C@H]2C(=O)c2ccccc2)cc1)NO = 144.3 to 145.7 °C
